# System: HepG2
# EXPERIMENTAL DETAILS: cell viability relative to DMSO; higher = less toxic
# CONDITION: 72 h; 100 nM
Please go through the items and note down their cell viability.

The cases that follow already have their cell viability on record.
Input line: Given O=C(O)c1ccc2[nH]cc(CCCCN3CC=C(c4ccccc4)CC3)c2c1 [carmoxirole] , respond with its cell viability.
Output line: 86.7%

Input line: Note down cell viability recorded for `Cc1cc(C)c(CNC(=O)c2cc(-c3ccc(CN4CCOCC4)cc3)cc3c2cnn3C2CCCC2)c(=O)[nH]1`
Output line: 100%

Input line: Dear colleague, please send me the reported cell viability for CC1(COc2ccc(CC3SC(=O)NC3=O)cc2)CCCCC1 (stereo not given) [ciglitazone] when you can.
Output line: 98.2%

Input line: Identify measured cell viability corresponding to CCNC(=O)/C=C/c1cccc(Br)c1 [cinromide]
Output line: 106%

Input line: Supply measured cell viability of Cn1cnc([N+](=O)[O-])c1Sc1ncnc2[nH]cnc12 [azathioprine] in your reply.
Output line: 93%

Input line: Respond only with cell viability recorded for CC/C(=C(/c1ccc(/C=C/C(=O)O)cc1)c1ccc2[nH]ncc2c1)c1ccc(F)cc1Cl [GDC-0810]
Output line: 92.2%

Input line: Report cell viability for `COc1ccccc1CN[C@H]1CCCN[C@H]1c1ccccc1`
Output line: 91.1%

Input line: Annotate the compound CC1(C)S[C@@H]2[C@H](NC(=O)[C@H](NC(=O)N3CCNC3=O)c3ccccc3)C(=O)N2[C@H]1C(=O)O [azlocillin] with its measured cell viability.
Output line: 99.3%

Input line: Annotate the compound CCc1nc(C(N)=O)c(Nc2ccc(N3CCC(N4CCN(C)CC4)CC3)c(OC)c2)nc1NC1CCOCC1 [gilteritinib] with its measured cell viability.
Output line: 92.4%

Input line: Look up and state reported cell viability for CSCC[C@H](NC(=O)[C@H](Cc1ccccc1)NC(=O)CNC(=O)CNC(=O)[C@@H](N)Cc1ccc(O)cc1)C(=O)O [metenkephalin]
Output line: 91%

Return reported cell viability values for all items listed beneath this line.
1. O=C1CN2Cc3c(ccc(Cl)c3Cl)N=C2N1 [anagrelide]
2. CC(C)C[C@@H](C(=O)N[C@@H](Cc1ccc(OCc2ccccc2)cc1)C(=O)NC(C)(C)C)N(C)Cc1ccc(C(C)(C)C)cc1
3. CC(C)NCC(O)COc1cccc2ccccc12 (stereo not given) [propranolol]

Output line:
["104%", "93.5%", "95.6%"]

List cell viability for every entry below, keeping the order given.
1. CCOC(=O)Nc1ccc2c(c1)N(C(=O)CN(C)C)c1ccccc1CC2 [tiracizine]
2. O=[N+]([O-])/C=C/c1ccc2c(c1)OCO2 [3,4-methylenedioxy-beta-nitrostyrene]
3. Cc1cc(C2CCCCC2)n(O)c(=O)c1 [ciclopirox]
4. CCCNC(=O)Nc1ccc(Oc2ncnc3cc(OC)c(OC)cc23)cc1Cl [KRN-633]
5. CC(C)n1cnc2c(NCCc3ccc(O)cc3)nc(-c3csc4ccccc34)nc21 [stemregenin-1]
6. Cc1[nH]c(=O)c(C#N)cc1-c1ccncc1 [milrinone]
7. O=C(NC1CCNCC1)c1n[nH]cc1NC(=O)c1c(Cl)cccc1Cl [AT-7519]

Output line:
["111%", "101%", "95.9%", "100%", "97.4%", "98.3%", "108%"]

Give one value of cell viability per listed compound.
1. C[C@]12CC[C@H](O)CC1=CC[C@@H]1[C@@H]2CC[C@]2(C)C(c3cccnc3)=CC[C@@H]12 [Abiraterone (CB-7598)]
2. C[C@H]1C[C@H]2[C@@H]3CCC4=CC(=O)C=C[C@]4(C)[C@H]3C(=O)C[C@]2(C)[C@@]1(O)C(=O)CO [Betapar (Meprednisone)]
3. Nc1ccn([C@H]2CO[C@@H](CO)S2)c(=O)n1 [apricitabine]
4. CCOC(=S)SSC(=S)OCC [dixanthogen]
5. C[C@]12C=CC(=O)C=C1CC[C@@H]1[C@@H]2[C@@H](O)C[C@@]2(C)[C@H]1CC[C@]2(O)C(=O)COC(=O)CCC(=O)O [prednisolone-hemisuccinate]
6. Cc1ncc(C)n2nc([C@@H]3C[C@H]3c3nc4c5cccnc5ccn4c3C)nc12 [PDE10-IN-1]
7. CCCCCCCCCC(=O)O[C@H]1CC[C@H]2[C@@H]3CCC4=CC(=O)CC[C@@H]4[C@H]3CC[C@]12C [Nandrolone decanoate]

Output line:
1. 103%
2. 95.5%
3. 104%
4. 101%
5. 91.7%
6. 96.1%
7. 97.9%

Provide reported cell viability for each item, in the same order as listed.
1. Cc1c(F)cc(C(=O)NC2CC2)cc1-c1ccc(C(=O)NCC(C)(C)C)cn1 [losmapimod]
2. CN(CCCN1c2ccccc2CCc2ccccc21)CC(=O)c1ccc(Cl)cc1 [lofepramine]
3. c1ccc2c(CC3=NCCN3)cccc2c1 [naphazoline]
4. CCC(CC)Nc1cc(C)nc(Oc2c(C)cc(C)cc2C)c1C
5. NC(=O)c1cccc(-c2cccc(OC(=O)NC3CCCCC3)c2)c1 [URB597]
6. CNC1CC(c2ccc(Cl)c(Cl)c2)c2ccccc21 (stereo not given) [indatraline]
7. O=[N+]([O-])c1c(Nc2cc(F)cc(Cl)c2)ccc2nonc12 [TC-S-7009]
8. Nc1ncn([C@H]2C[C@H](O)[C@@H](CO)O2)c(=O)n1 [decitabine]

Output line:
["105%", "102%", "102%", "93.1%", "104%", "96.4%", "95.3%", "82.6%"]
